- Tested on: COLO 205
- ASSAY PROTOCOL: Cytotoxicity against human COLO205 cells assessed as cell growth at 0.001 uM after 48 hrs by sulforhodamine B assay
- Format: functional
- CONDITION DETAILS: COLO 205, 48 h, read-out: Activity
VALUE KIND: growth at 0.001 µM (%)
A number alone suffices; assume %.

The examples below pair each entry with its known result.
>>> print(df.to_string())
                              smiles_string  target_system  number
0  COc1cc(C)cc(-c2c(-c3ccnc(-c4ccc(N(C)C)cc4)c3)cnn2CC#N)c1       COLO 205      98
1  Cc1cc(O)cc(-c2nn(CC#N)cc2-c2ccnc(-c3ccc(N(C)C)cc3)c2)c1       COLO 205     109
2  COc1cc(C)cc(-c2nn(CC#N)cc2-c2ccc(-c3cccc(C(C)=O)c3)nc2)c1       COLO 205     103
3  Cc1cc(O)cc(-c2nn(CC#N)cc2-c2ccnc(-c3ccc(Oc4ccccc4)cc3)c2)c1       COLO 205     107
4  COc1cc(C)cc(-c2c(-c3ccnc(-c4ccc(C(C)=O)cc4)c3)cnn2CC#N)c1       COLO 205     109

## Task Bench note: what growth at 0.001 µM did `COc1cc(C)cc(-c2nn(CC#N)cc2-c2ccnc(-c3ccc(N(C)C)cc3)c2)c1` show?
## Result 107
